Target: CYP2C11 (Rattus norvegicus)
Sequence (P08683 1-500): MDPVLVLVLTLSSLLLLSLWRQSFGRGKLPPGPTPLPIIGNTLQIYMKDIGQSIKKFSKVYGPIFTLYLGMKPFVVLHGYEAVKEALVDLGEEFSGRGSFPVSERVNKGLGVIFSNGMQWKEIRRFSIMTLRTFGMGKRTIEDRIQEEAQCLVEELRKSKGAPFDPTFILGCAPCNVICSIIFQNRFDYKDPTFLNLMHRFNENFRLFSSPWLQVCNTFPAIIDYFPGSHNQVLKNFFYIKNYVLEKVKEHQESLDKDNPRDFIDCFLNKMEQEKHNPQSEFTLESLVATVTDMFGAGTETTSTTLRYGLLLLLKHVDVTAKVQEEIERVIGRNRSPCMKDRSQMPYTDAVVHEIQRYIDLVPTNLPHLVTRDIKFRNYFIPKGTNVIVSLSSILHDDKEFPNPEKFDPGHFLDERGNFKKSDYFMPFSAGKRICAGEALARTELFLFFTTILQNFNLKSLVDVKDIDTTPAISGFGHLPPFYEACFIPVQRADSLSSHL
measure: pKi
Interpret pKi as the negative base-10 log of the concentration measured in mol/L.

Query: Missing value: pKi, CYP2C11 (Rattus norvegicus), entry O=C(O)c1ccccc1O . Fill in?
Reply: 4.07
